# Tested on: CD2F1 mice, L1210 leukemia ip, survival T/C
# RUN DESCRIPTION: NCI In Vivo Anticancer Drug Screen. Data for tumor model L1210 Leukemia (intraperitoneal) in CD2F1 (CDF1) mice
# TEST CONTEXT: endpoint: mean survival time; dose: 400.0 mg/kg/injection; schedule: Q04DX003 (ip); vehicle: saline with Tween-80; higher = longer survival
Inconclusive results and toxic doses are left out.
MEASURED ATTRIBUTE: T/C

INSERT INTO assay_data (molecule, test_value) VALUES
  ('O=C1OC(=O)c2ccc([N+](=O)[O-])c3c([N+](=O)[O-])ccc1c23', '90 % of control'),
  ('O=C1CC(c2ccccc2)OC(c2ccccc2Cl)C1 (stereo unspecified)', '94 % of control'),
  ('COC(=O)C(Cl)(Cl)c1nc(NC(C)=O)[nH]c(=O)c1Cl', '91 % of control'),
  ('O=C1CCC2(CC1C1C=CCC1)OCCO2 (stereo unspecified)', '98 % of control'),
  ('O=S1(=O)C2CCCCCC2(N2CCOCC2)C1C1CCCCC1 (stereo unspecified)', '97 % of control'),
  ('OCc1ccc(Cl)c(Cl)c1', '96 % of control'),
  ('CCCCCCCCCCCc1nc(N)n[nH]1', '102 % of control'),
  ('CCCCNCCC#N', '98 % of control'),
  ('CCCCCCNC(=O)Nc1cccc(Cl)c1C', '92 % of control'),
  ('CC(=O)OCC(OC(C)=O)C(OC(C)=O)C(OC(C)=O)C(S)S (stereo unspecified)', '101 % of control'),
  ('C(=N\N=C\C1CCc2ccccc21)/c1ccco1 (stereo unspecified)', '87 % of control');
